Tested on: HIV-1Ba-L
METHOD NOTES: Inhibition of virus replication in MAGI-CCR5 cells (β-galactosidase reporter)
Format: cell-based
ASSAY SETUP: HIV-1Ba-L in MAGI-CCR5 cells
PROPERTY: TI (TC50/IC50)

// solved cases for TI (TC50/IC50) follow
# COMPOUND, TI (TC50/IC50)
records = [
    ("CC1=C(c2nc(-c3ccc(C#N)cc3)cs2)C(c2ccnc(Cl)c2)NC(=O)N1 (centres unmarked) [Example 24]", "C (C < 50.0 to 10.0)"),
    ("CC1=C(c2nc(-c3ccc(C#N)cc3)cs2)C(c2ccc(F)c([N+](=O)[O-])c2)NC(=O)N1 (centres unmarked) [Example 60]", "C (C < 50.0 to 10.0)"),
    ("CC1=C(c2nc(-c3ccc(C#N)cc3)cs2)C(c2cccc(OC(F)(F)F)c2)NC(=O)N1 (centres unmarked) [Example 62]", "D (D < 10.0)"),
    ("CC1=C(c2nc(-c3ccc(C#N)cc3)cs2)C(c2ccc3ccccc3n2)NC(=O)N1 (centres unmarked) [Example 6]", "C (C < 50.0 to 10.0)"),
    ("CC1=C(c2nc(-c3ccc(C#N)cc3)cs2)C(c2cc3ccccc3s2)NC(=O)N1 (centres unmarked) [Example 12]", "C (C < 50.0 to 10.0)"),
    ("COc1ncccc1C1NC(=O)NC(C)=C1c1nc(-c2ccc(C#N)cc2)cs1 (centres unmarked) [Example 27]", "C (C < 50.0 to 10.0)"),
]

The reported TI (TC50/IC50) of the compound CC1=C(c2nc(-c3ccc(C)cc3)cs2)C(c2cccc(O)c2)NC(=O)N1 (centres unmarked) [Example 73] was D (D < 10.0)

The reported TI (TC50/IC50) of the compound CC1=C(c2nc(-c3cccc(C#N)c3)cs2)C(c2cccc(O)c2)NC(=O)N1C (centres unmarked) [Example 68] was D (D < 10.0)

The reported TI (TC50/IC50) of the compound CC1=C(c2nc(-c3cccc(O)c3)cs2)C(c2cccc(O)c2)NC(=O)N1 (centres unmarked) [Example 38] was D (D < 10.0)

The reported TI (TC50/IC50) of the compound CC1=C(c2nc(-c3ccc(C#N)cc3)cs2)C(c2cc3ccccc3[nH]2)NC(=O)N1 (centres unmarked) [Example 10] was C (C < 50.0 to 10.0)

The reported TI (TC50/IC50) of the compound COc1ncc(C2NC(=O)NC(C)=C2c2nc(-c3ccc(C#N)cc3)cs2)cn1 (centres unmarked) [Example 31] was C (C < 50.0 to 10.0)

The reported TI (TC50/IC50) of the compound CC1=C(c2nc(-c3ccc(C#N)cc3)cs2)C(c2cccnc2Cl)NC(=O)N1 (centres unmarked) [Example 4] was C (C < 50.0 to 10.0)

The reported TI (TC50/IC50) of the compound CC1=C(c2nc(-c3cccs3)cs2)C(c2cccc(O)c2)NC(=O)N1 (centres unmarked) [Example 37] was D (D < 10.0)

The reported TI (TC50/IC50) of the compound COc1ccc(-c2csc(C3=C(C)NC(=O)NC3c3ccc(-c4ccccc4)cc3)n2)cc1 (centres unmarked) [Example 43] was D (D < 10.0)

The reported TI (TC50/IC50) of the compound CC1=C(c2nc(-c3ccc(C#N)cc3)cs2)C(c2cccc(F)c2)NC(=O)N1 (centres unmarked) [Example 50] was C (C < 50.0 to 10.0)
